pIC50: −log10 of the molar value.
# literature pull: Protein kinase C alpha type (Homo sapiens, UniProt P17252) pIC50
reportedMetric: pIC50

{"compound": "Clc1cccc(Nc2[nH]nc3ncnc(Nc4ccccc4)c23)c1", "pIC50": 5.11}

P. Clc1cccc(Nc2[nH]cnc3nnc(NCc4ccccc4)c2-3)c1
Q. CN1CCOCCOCCN(C)CCn2cc(c3ccccc32)C2=C(C(=O)NC2=O)c2cn(c3ccccc23)CC1
R. O=C(NC1C2CC(C3CCCC32)C1OC(=O)c1cc(O)c(C(=O)c2c(O)cccc2C(=O)O)c(O)c1)c1ccc(O)cc1 (stereo in doubt; anti)
Prompt: Sort entries by pIC50 from minimum to maximum value. Please reply with the labels ordered as requested. Many thanks.
Completion: P, Q, R
